Hi there, I'd appreciate the recorded Bliss excess for every entry that follows.
system: SUIT-2 (Pancreatic Carcinoma); test: Bliss excess, mean over the matrix (fraction); higher = more synergy;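 note: after 72 h of two-drug dosing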
No unit in the answer, please; the number alone is enough.

State its Bliss excess on SUIT-2 (Pancreatic Carcinoma): Cc1cc2ncnn2cc1Nc1ncc2c(n1)n(C1CCOCC1)c(=O)n2C [AZD7648] + CN(C)CCCOc1ccc(-c2ccc3ncc4c(c3c2)n(C2CCOCC2)c(=O)n4C)cn1 [AZD0156] (first compound max 10 µM, 7x7, partner max 1 µM)
-0.0125

State its Bliss excess on SUIT-2 (Pancreatic Carcinoma): C[C@@H]1COCCN1c1cc(C2([S@](C)(=N)=O)CC2)nc(-c2ccnc3[nH]ccc23)n1 [AZD6738] + O=C(c1cc(Cc2n[nH]c(=O)c3ccccc23)ccc1F)N1CCN(C(=O)C2CC2)CC1 [Olaparib] (first compound max 10 µM, 7x7, partner max 10 µM)
-0.0264

State its Bliss excess on SUIT-2 (Pancreatic Carcinoma): CN(C)CCCOc1ccc(-c2ccc3ncc4c(c3c2)n(C2CCOCC2)c(=O)n4C)cn1 [AZD0156] + C[C@@H]1COCCN1C2=NC(=NC(=C2)C3(CC3)[S@](=N)(=O)C)C4=C5C=CNC5=NC=C4 [AZD6738] (first compound max 1 µM, 7x7, partner max 10 µM)
0.0103

State its Bliss excess on SUIT-2 (Pancreatic Carcinoma): Cc1c2c(nn1C)CSCc1cc(n(C)n1)CSc1cc(c3ccccc3c1)OCCCc1c(C(=O)O)n(C)c3c-2c(Cl)ccc13 [AZD5991] + Cn1cnc2c(F)c(Nc3ccc(Br)cc3Cl)c(C(=O)NOCCO)cc21 [Selumetinib] (first compound max 1 µM, 7x7, partner max 3 µM)
-0.0135

State its Bliss excess on SUIT-2 (Pancreatic Carcinoma): C=CCn1c(=O)c2cnc(Nc3ccc(N4CCN(C)CC4)cc3)nc2n1-c1cccc(C(C)(C)O)n1 [AZD1775] + C1CN(CCC1(C(=O)N[C@@H](CCO)C2=CC=C(C=C2)Cl)N)C3=NC=NC4=C3C=CN4 [Capivasertib] (first compound max 3 µM, partner max 3 µM)
-0.017

State its Bliss excess on SUIT-2 (Pancreatic Carcinoma): CC1(C)CCC(CN2CCN(c3ccc(C(=O)NS(=O)(=O)c4ccc(NCC5CCOCC5)c([N+](=O)[O-])c4)c(Oc4cnc5[nH]ccc5c4)c3)CC2)=C(c2ccc(Cl)cc2)C1 [Venetoclax] + CCN(CCO)CCCOc1ccc2c(Nc3cc(CC(=O)Nc4cccc(F)c4)[nH]n3)ncnc2c1 [AZD2811] (first compound max 1 µM, 7x7, partner max 1 µM)
-0.0135

State its Bliss excess on SUIT-2 (Pancreatic Carcinoma): CN(CCO)CC[C@H](CSc1ccccc1)Nc1ccc(S(=O)(=O)NC(=O)c2ccc(N3CCC([C@@H](O)c4ccccc4-c4ccc(Cl)cc4)CC3)cc2)cc1S(=O)(=O)C(F)(F)F [AZD4320] + C[C@@H]1COCCN1C2=NC(=NC(=C2)C3(CC3)[S@](=N)(=O)C)C4=C5C=CNC5=NC=C4 [AZD6738] (first compound max 1 µM, 7x7, partner max 10 µM)
-0.098
